Entries and their isoTOP-ABPP reactivity ratio at lysine P02766_K35 values follow.
# Assay target: TTR Transthyretin (Homo sapiens, UniProt P02766)
# Construct: isoTOP-ABPP experiments performed in cell lysates (in vitro); endogenous in cells; host or cells: MDA-MB-231 soluble lysate
# Protocol summary: competitive isoTOP-ABPP
# Assay type: binding
# Conditions used: 50 uM, 231 sol, in vitro
Property name: isoTOP-ABPP reactivity ratio at lysine P02766_K35

{"Molecule": "Cn1cc(CC(=O)Oc2ccc([N+](=O)[O-])cc2[N+](=O)[O-])c2ccccc21", "Assay target": "TTR Transthyretin (Homo sapiens, UniProt P02766)", "Result value": 3.1}
{"Molecule": "COc1cc(CCC(=O)Oc2ccc([N+](=O)[O-])cc2[N+](=O)[O-])cc(OC)c1OC", "Assay target": "TTR Transthyretin (Homo sapiens, UniProt P02766)", "Result value": 2.7}
{"Molecule": "O=C(Oc1ccc([N+](=O)[O-])cc1[N+](=O)[O-])C(c1ccccc1)c1ccccc1 [fragment 30, 2,4-Dinitrophenyl 2,2-diphenylacetate]", "Assay target": "TTR Transthyretin (Homo sapiens, UniProt P02766)", "Result value": 1.5}
{"Molecule": "O=C(CCc1cn(-c2ccccc2)nc1-c1ccccc1)Oc1ccc([N+](=O)[O-])cc1[N+](=O)[O-]", "Assay target": "TTR Transthyretin (Homo sapiens, UniProt P02766)", "Result value": 1.6}
{"Molecule": "O=C(Oc1ccc([N+](=O)[O-])cc1[N+](=O)[O-])c1cc(C(F)(F)F)cc(C(F)(F)F)c1", "Assay target": "TTR Transthyretin (Homo sapiens, UniProt P02766)", "Result value": 16.1}
